target: human DR5 (human); experiment: SPR (BIAcore X100), human DR5 on CM5 chip, IgG injected, 1:1 Langmuir model
Each entry below lists one item and its recorded Kd value.
The response must be a number in nM with no trailing unit.

DA23 (antibody, V domains shown) VH: EVQLVESGGGLVQPGGSLRLSCAASGFTFSSFNMLWVRQAPGKGLEWVAGIGKSDRYTGYGSAVKGRFTISRDDSKSTVYLQMNSLRAEDTAVYYCVRDAGSPCGKGGWTGACIDTWGQGTLVTVSS VL: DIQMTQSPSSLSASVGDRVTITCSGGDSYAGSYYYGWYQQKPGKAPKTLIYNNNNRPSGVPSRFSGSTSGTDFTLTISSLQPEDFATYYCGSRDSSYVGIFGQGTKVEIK | 0.0403
DA29 (antibody, V domains shown) VH: AVTLDESGGGLQTPGGGLSLVCKGSGFTFSSFNMLWVRQAPGKGLEWVAGIGKSDRYTGYGSAVKGRATISRDDGQSTARLQLNNLRAEDTGTYYCVKDAGSGCGSGGWTGACIDTWGHGTEVIVSS VL: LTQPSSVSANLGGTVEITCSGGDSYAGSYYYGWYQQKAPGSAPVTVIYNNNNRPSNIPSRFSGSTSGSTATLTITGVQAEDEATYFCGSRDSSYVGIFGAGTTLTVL | 0.0698

// moving on: another record for Kd
Could you tell me which Kd is on file for DA24 (antibody, V domains shown) VH: AVTLDESGGGLQTPGGGLSLVCKGSGFTFSSFNMLWVRQAPGKGLEWVAGIGKSDRYTGYGSAVKGRATISRDDGQSTVRLQLNNLRAEDTGTYYCVKDAGSGCGSGGWTGACIDTWGHGTEVIVSS VL: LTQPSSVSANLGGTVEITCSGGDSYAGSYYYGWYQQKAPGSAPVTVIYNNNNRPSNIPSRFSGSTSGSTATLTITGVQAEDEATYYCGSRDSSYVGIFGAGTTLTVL ?
0.00102
